// data source = paper PMC4301919

# SYSTEM: T1, TRBP-dsRBD2 (UniProt Q15633-2 139-215)
# T1 sequence: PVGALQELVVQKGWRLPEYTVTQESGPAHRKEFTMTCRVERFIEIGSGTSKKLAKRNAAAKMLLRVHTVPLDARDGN
# PROTOCOL_DETAILS: EMSA; apparent Kd; nH 2.7; 50 mM sodium cacodylate pH 7.0, 50 mM potassium glutamate, 5% glycerol; EMSA 0.5 pM RNA, 30 min at room temperature, gel 0.25X TBE at 10 C; CD at 10 C with 5-15 uM RNA
# REPORTED_CONDITIONS: protein: recombinant; label: 5'-32P top strand (EMSA); blunt
QUANTITY: pKd
Give bare numbers, as −log10 of the molar value.

What does the data say about its pKd? Entry: ds22 (dsRNA) RNA 1: GUCAGCAGUGCCUUAGCAGCAC RNA 2: GUGCUGCUAAGGCACUGCUGAC
5.77
